system-under-test: Cyclin-dependent kinase 2/cyclin A (Homo sapiens, UniProt P24941)
assay-procedure: Inhibition of CDK2/cyclin A (unknown origin) incubated for 1 hr in presence of ATP by ADP-glo luminescent assay
measure: IC50 (µM)

// solved cases for IC50 follow
smiles_string=CC(C)N(CCNC(=O)c1ccc(Nc2nccc(-c3ccc(F)cc3OCc3ccccc3)n2)cc1)C(C)C number=0.915
smiles_string=CN(C)CCNC(=O)c1ccc(Nc2nccc(-c3ccc(F)cc3OCc3ccccc3)n2)cc1 number=0.876
smiles_string=CCN(CC)CCNC(=O)c1ccc(Nc2nccc(-c3ccc(F)cc3OCc3ccccc3)n2)cc1 number=0.796

a. CC(C)(C)OC(=O)N1CCN(C(=O)c2ccc(Nc3nccc(-c4ccc(F)cc4OCc4ccccc4)n3)cc2)CC1
b. O=C(O)c1ccc(Nc2nccc(-c3ccc(F)cc3OCc3ccccc3)n2)cc1
Query: Please compare: a and b . Report which one has the smaller IC50 value. # reply format: chosen label
Reply: b
(b: 0.636 µM, a: 0.924 µM)

----------
System: NCI-H1975
assay-procedure: Antiproliferative activity against human NCI-H1975 cells assessed as cell growth inhibition measured after 72 hrs by MTT assay
Format: functional, cell-based
assay-conditions: NCI-H1975, 72 h
measure: IC50 (µM)

// solved cases for IC50 follow
smiles_string=CNCCNC(=O)c1ccc(Nc2nccc(-c3ccc(F)cc3OC)n2)cc1 output_unit=µM number=9.61
smiles_string=CC(C)(C)OC(=O)N1CCN(C(=O)c2ccc(Nc3nccc(-c4ccc(F)cc4OCc4ccccc4)n3)cc2)CC1 output_unit=µM number=1.74
smiles_string=O=C(NCCN1CCOCC1)c1ccc(Nc2nccc(-c3ccc(F)cc3OCc3ccccc3)n2)cc1 output_unit=µM number=10.6

P. CNCCNC(=O)c1ccc(Nc2nccc(-c3ccc(F)cc3OCc3ccccc3)n2)cc1
Q. O=C(c1ccc(Nc2nccc(-c3ccc(F)cc3OCc3ccccc3)n2)cc1)N1CCNCC1
Query: Please compare: P and Q . Report which one has the smaller IC50 value. # reply format: chosen label
Reply: P
(P: 1.15 µM, Q: 2.23 µM)

----------
Species on record: Homo sapiens
assay-procedure: Selectivity index, ratio of IC50 for CDK2/cyclin A (unknown origin) to IC50 for CDK9/cyclin T1 (unknown origin)
measure: Selectivity Index

// solved cases for Selectivity Index follow
smiles_string=CN(C)CCNC(=O)c1ccc(Nc2nccc(-c3ccc(F)cc3OCc3ccccc3)n2)cc1 number=84.3
smiles_string=CCN(CC)CCNC(=O)c1ccc(Nc2nccc(-c3ccc(F)cc3OCc3ccccc3)n2)cc1 number=29.8
smiles_string=O=C(O)c1ccc(Nc2nccc(-c3ccc(F)cc3OCc3ccccc3)n2)cc1 number=7.4

I. CC(C)(C)OC(=O)N1CCN(C(=O)c2ccc(Nc3nccc(-c4ccc(F)cc4OCc4ccccc4)n3)cc2)CC1
II. CC(C)N(CCNC(=O)c1ccc(Nc2nccc(-c3ccc(F)cc3OCc3ccccc3)n2)cc1)C(C)C
Query: Please compare: I and II . Report which one has the smaller Selectivity Index value. # reply format: chosen label
Reply: I

----------
Tested on: HCT-116
assay-procedure: Antiproliferative activity against human HCT-116 cells assessed as cell growth inhibition measured after 72 hrs by MTT assay
Assay type: functional, cell-based
assay-conditions: HCT-116, 72 h
measure: IC50 (µM)

smiles_string=COc1cc(F)ccc1-c1ccnc(Nc2ccc(C(=O)NCCN(C)C)cc2)n1 output_unit=µM number=12.5
smiles_string=O=C(NCCN1CCOCC1)c1ccc(Nc2nccc(-c3ccc(F)cc3OCc3ccccc3)n2)cc1 output_unit=µM number=18
smiles_string=CNCCNC(=O)c1ccc(Nc2nccc(-c3ccc(F)cc3OC)n2)cc1 output_unit=µM number=16.3

A. O=C(NCCN1CCCCC1)c1ccc(Nc2nccc(-c3ccc(F)cc3OCc3ccccc3)n2)cc1
B. COc1cc(F)ccc1-c1ncnc(Nc2cccc(C[S@](C)(=N)=O)c2)n1
C. CCN(CC)CCNC(=O)c1ccc(Nc2nccc(-c3ccc(F)cc3OCc3ccccc3)n2)cc1
D. CC(C)(C)OC(=O)N1CCN(C(=O)c2ccc(Nc3nccc(-c4ccc(F)cc4OCc4ccccc4)n3)cc2)CC1
E. CNCCNC(=O)c1ccc(Nc2nccc(-c3ccc(F)cc3OCc3ccccc3)n2)cc1
Query: Kindly order the items shown according to IC50, from the highest value down. I would appreciate it if you listed the labels in the requested order.
Reply: D, E, A, B, C

The measurements presented in this section are drawn from ChEMBL document CHEMBL5247634.
